B1: FERM and PDZ domain-containing protein 4, residues 75 to 154; numbered along this chain, Q14CM0 (parent)
chain: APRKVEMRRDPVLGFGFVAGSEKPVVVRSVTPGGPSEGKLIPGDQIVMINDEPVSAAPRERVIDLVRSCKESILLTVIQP

- Variants of: B1
- assay-method-text: abundance fitness (aPCA) (normalised: wild type 0, dead -1); higher = more abundant; growth selection in yeast, the domain comes from the species named
- setup-conditions: Homo sapiens
# if value of abundance fitness reaches -0.1, tag criterion met; if it stays below, tag criterion not met

Below are worked cases with known answers.
[[record]]
mut = "D51P"
category_label = "criterion not met"

[[record]]
mut = "P32Q"
category_label = "criterion met"

[[record]]
mut = "F15T"
category_label = "criterion not met"

[[record]]
mut = "S21W"
category_label = "criterion met"

[[record]]
mut = "N50A"
category_label = "criterion not met"

[[record]]
mut = "S36T"
category_label = "criterion not met"


Hi team, for "V26S" , is the recorded abundance fitness at or above -0.1?
criterion not met

Hi team, for "V5Y" , is the recorded abundance fitness at or above -0.1?
criterion not met
